Where do these numbers come from? They come from PubChem BioAssay (NCI).

# Test system: OVCAR-4 ovarian
# Assay Overview: NCI-60 one-dose screen, 48 h (100 = growth as untreated, 0 = no growth, -100 = all killed)
# Condition Notes: 10 µM unless noted
Compounds without any hit were thinned out: in the full panel of roughly 83,000, 20% have a hit.
Quick reference for growth among some compounds
Give the quantity in %, number only.

Would you please look over these solved cases?
C=C(C)[C@@H]1CCC[C@]2(C(=O)N3CCN(C)CC3)CC[C@]3(C)[C@@H](CC[C@@H]4[C@@]5(C)CC/C(=N\NC(=O)c6ccncc6)C(C)(C)[C@@H]5CC[C@]43C)[C@@H]12: 91.5
C=CC(=O)Nc1ccc(Nc2nccc(-c3ccc(N4CCCC4)c(C#N)c3)n2)cc1: 47.3

Incoming: Give the value of growth reported for the following: c1nc2ccc(-c3cc4ccc5[nH]ncc5c4c4c3CCCC4)cc2[nH]1
Outgoing: 88

Incoming: Assign growth to the following record: CCN1C(=O)N(CC)C2C1NN=c1s/c(=C\c3ccc[nH]3)c(=O)n12 (centres undefined)
Outgoing: 50.6

###

# Tested on: NCI-H322M lung
# Assay Overview: NCI-60 one-dose screen, 48 h
# Condition Notes: 10 µM unless noted
The panel holds about 83,000 compounds, 20% with a hit somewhere; the sample as a whole holds those more often. Activity calls are given as the source filed them. How the source made its calls: active means growth percent below 10; inactive means the rest.
Reply using exactly one outcome from active, inactive

Cc1nnc(-c2ccc3c(c2)nc(/C=C/c2ccccc2)n3C2CCCCC2)o1: inactive
O=C(CCCCCNC(=O)c1cc(=O)c(O)co1)Nc1ccccc1: inactive
O=C(Oc1ccc(CCl)cc1)c1ccccc1: active
COc1cc2c(cc1OCCCCN1CCN(C(=S)SCCC(C#N)(c3ccccc3)c3ccccc3)CC1)N=C[C@@H]1CCCN1C2=O: active
CC1C(/C=N/NC(N)=S)C(C#N)(C#N)C1(C#N)C#N (stereo not drawn): inactive
CN1CCN(c2ccc3nc4c(nc3c2C(F)(F)F)C(=O)c2ncccc2C4=O)CC1: inactive

Incoming: Hi, do you know how FC(F)(F)Oc1cccc(-c2cnc3ccc(-c4ccncc4)nn23)c1 came out in this test?
Outgoing: inactive

Incoming: Called result for CCOC(=O)c1cc(C(=O)c2cc(OC)c(OC)c(OC)c2)n2ccccc12
Outgoing: inactive

Incoming: Which result was noted for this compound in the test: CC1(C)OB(O)c2cc(-c3nc4ccc5[nH]ncc5c4c4c3CCCC4)ccc21
Outgoing: inactive

Incoming: Status in this test for CN1CCN(C(=O)C(C)(C)c2ccc(C(=O)Nc3cn4cc(-c5ccncc5)ccc4n3)cc2)CC1 ?
Outgoing: inactive

Incoming: Returns: the outcome recorded for C=C(C)[C@@H]1CCC[C@]2(C(=O)O)CC[C@]3(C)[C@@H](CC[C@@H]4[C@@]5(C)C/C(=C/c6ccncc6)C(=O)C(C)(C)[C@@H]5CC[C@]43C)[C@@H]12 in this assay.
Outgoing: inactive

Incoming: Entry O=C(Nc1ccc(Br)cc1)C1=NCCCCN1 : call = ?
Outgoing: inactive

Incoming: Name the outcome recorded for Cc1c2ccncc2c(C)c2c1c1cc(CO)ccc1n2C in the assay.
Outgoing: active

Incoming: Each compound tested received a call. Report the one for COc1ccc(C(=O)Cn2c(C(=O)c3ccc(OC)cc3)nc3ccccc32)cc1 .
Outgoing: inactive

Incoming: Recorded test outcome, item CCNC(=O)Oc1ccc(/C(=C(/CC)Cc2ccccc2)c2ccc(OCCN3CCCC3)cc2)cc1
Outgoing: inactive
